# assayed_target: p-hydroxybenzoate hydroxylase (Pseudomonas fluorescens)
# Sequence (P00438 whole entry): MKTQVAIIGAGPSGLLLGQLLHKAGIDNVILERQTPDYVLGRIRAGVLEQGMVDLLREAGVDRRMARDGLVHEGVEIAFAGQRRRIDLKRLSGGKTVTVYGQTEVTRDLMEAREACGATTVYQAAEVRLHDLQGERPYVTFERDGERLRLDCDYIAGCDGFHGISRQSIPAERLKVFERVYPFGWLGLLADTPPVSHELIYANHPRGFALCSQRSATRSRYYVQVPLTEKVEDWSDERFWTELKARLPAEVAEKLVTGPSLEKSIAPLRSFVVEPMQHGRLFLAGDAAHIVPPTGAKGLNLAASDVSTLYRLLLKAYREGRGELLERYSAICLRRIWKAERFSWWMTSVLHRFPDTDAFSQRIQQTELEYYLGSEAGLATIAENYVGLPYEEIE
# assay_protocol: Binding affinity against p-hydroxybenzoate hydroxylase (PHBH) from Pseudomonas fluorescence competing with p-hydroxy benzoic acid
endpoint: Ki (nM)
The figure you give is taken to be in nM; do not add the unit.

Please give measured Ki of the following entry: O=C(O)c1ccc(O)cc1OCc1ccccc1 59
